Property: EC50; scope: individual compounds
molecular target: Peroxisome proliferator-activated receptor delta (Homo sapiens, UniProt Q03181); experiment: Transactivation of GAL4-fused PPARbeta (delta) ligand binding domain transfected in human HepG2 cells after 20 hrs by luciferase reporter gene assay
Sequence (Q03181 whole entry, the tested form may be a part): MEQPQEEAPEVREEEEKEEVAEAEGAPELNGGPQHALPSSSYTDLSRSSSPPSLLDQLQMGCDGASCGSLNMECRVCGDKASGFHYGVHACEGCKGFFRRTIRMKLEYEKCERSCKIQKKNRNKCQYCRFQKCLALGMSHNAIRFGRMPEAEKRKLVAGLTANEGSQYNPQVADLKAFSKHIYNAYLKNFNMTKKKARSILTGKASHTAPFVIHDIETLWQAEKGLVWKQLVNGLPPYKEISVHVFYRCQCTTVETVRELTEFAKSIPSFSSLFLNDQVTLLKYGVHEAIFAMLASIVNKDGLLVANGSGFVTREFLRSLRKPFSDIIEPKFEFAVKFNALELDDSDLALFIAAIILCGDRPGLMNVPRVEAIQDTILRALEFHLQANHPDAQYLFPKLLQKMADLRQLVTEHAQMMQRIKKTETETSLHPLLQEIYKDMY
parameter.measured: EC50 (µM)

>>> assay_value("OC[C@H]1O[C@@H](Oc2ccc(CCCC[C@H](O)CCc3ccc(O[C@@H]4O[C@H](CO)[C@@H](O)[C@H](O)[C@H]4O)c(O)c3)cc2O)[C@H](O)[C@@H](O)[C@@H]1O [PLANTAGINEOSIDE B]")
13.1
>>> assay_value("OC[C@H]1O[C@@H](O[C@H](CCc2ccc(O)cc2)C[C@H](O)CCc2ccc(O)cc2)[C@H](O)[C@@H](O)[C@@H]1O")
29.3
>>> assay_value("OC[C@H]1O[C@@H](O[C@H](CCc2ccc(O)c(O)c2)C[C@H](O)CCc2ccc(O)c(O)c2)[C@H](O)[C@@H](O)[C@@H]1O")
23.1
>>> assay_value("OC[C@H]1O[C@@H](O[C@@H]2C[C@H](CCc3ccc(O)c(O)c3)O[C@H](c3ccc(O)c(O)c3)C2)[C@H](O)[C@@H](O)[C@@H]1O [PLANTAGINEOSIDE C]")
30.1
>>> assay_value("O=C(CCCCc1ccc(O[C@@H]2O[C@H](CO)[C@@H](O)[C@H](O)[C@H]2O)c(O)c1)CCc1ccc(O[C@@H]2O[C@H](CO)[C@@H](O)[C@H](O)[C@H]2O)c(O)c1 [PLANTAGINEOSIDE A]")
11
>>> assay_value("OC[C@H]1O[C@@H](O[C@H](CCc2ccc(O)c(O)c2)C[C@H](O)CCc2ccc(O)cc2)[C@H](O)[C@@H](O)[C@@H]1O")
15.6
>>> assay_value("CCCc1c(OCCCOc2ccc(OCC(=O)O)cc2)ccc(C(C)=O)c1O")
0.65
